- Read-out: Nuclear factor NF-kappa-B p105 subunit (Homo sapiens)
- method.notes: LTEA_HepaRG_NFKB1: Life Technologies and Expression Analysis (LTEA) Assay for Nuclear Factor Kappa B Subunit 1 (NFKB1) using HepaRG (AID 2283521)
- cond: mRNA level, 48 h; actives raise or lower the signal
Active and inactive are the calls of the source. How the source made its calls: active means hit-call score of the fitted dose curve at least 0.9, where 1 is the maximum; inactive means score below 0.9.
Classes used: 1 for active, 0 for inactive

compound | classification
CCOP(=O)(NC(C)C)Oc1ccc(SC)c(C)c1 (stereo not given) | 0
CC(C)[C@H](C(=O)O[C@H](C#N)c1cccc(Oc2ccccc2)c1)c1ccc(Cl)cc1 | 0
CCOP(=S)(OCC)Oc1ccc([N+](=O)[O-])cc1 | 0
CNC(=O)ON=C(SC)C(=O)N(C)C | 0
CNc1cnn(-c2cccc(C(F)(F)F)c2)c(=O)c1Cl | 0
CCCCN(CC)c1c([N+](=O)[O-])cc(C(F)(F)F)cc1[N+](=O)[O-] | 0
COc1cc(OC)nc(Sc2cccc(Cl)c2C(=O)O)n1 | 0
Nc1c(Cl)cc([N+](=O)[O-])cc1Cl | 1
CCOP(=S)(Oc1cnc(C(C)(C)C)nc1)OC(C)C (stereo not given) | 0
O=C(O)c1cc(Oc2ccc(C(F)(F)F)cc2Cl)ccc1[N+](=O)[O-] | 0
